Form field: pEC50 (one value per entry).
- Subject of test: Ba/F3 stable cells (Homo sapiens, UniProt P00533, DUP771-773, cells depend on it)
- Construct: EC50 Ba/F3-EGFR H773-V774insNPH; other: Ba/F3-EGFR H773-V774insNPH cells, 72 h, CCK-8
- Sequence (P00533 with tags, fused parts or gaps DUP771-773): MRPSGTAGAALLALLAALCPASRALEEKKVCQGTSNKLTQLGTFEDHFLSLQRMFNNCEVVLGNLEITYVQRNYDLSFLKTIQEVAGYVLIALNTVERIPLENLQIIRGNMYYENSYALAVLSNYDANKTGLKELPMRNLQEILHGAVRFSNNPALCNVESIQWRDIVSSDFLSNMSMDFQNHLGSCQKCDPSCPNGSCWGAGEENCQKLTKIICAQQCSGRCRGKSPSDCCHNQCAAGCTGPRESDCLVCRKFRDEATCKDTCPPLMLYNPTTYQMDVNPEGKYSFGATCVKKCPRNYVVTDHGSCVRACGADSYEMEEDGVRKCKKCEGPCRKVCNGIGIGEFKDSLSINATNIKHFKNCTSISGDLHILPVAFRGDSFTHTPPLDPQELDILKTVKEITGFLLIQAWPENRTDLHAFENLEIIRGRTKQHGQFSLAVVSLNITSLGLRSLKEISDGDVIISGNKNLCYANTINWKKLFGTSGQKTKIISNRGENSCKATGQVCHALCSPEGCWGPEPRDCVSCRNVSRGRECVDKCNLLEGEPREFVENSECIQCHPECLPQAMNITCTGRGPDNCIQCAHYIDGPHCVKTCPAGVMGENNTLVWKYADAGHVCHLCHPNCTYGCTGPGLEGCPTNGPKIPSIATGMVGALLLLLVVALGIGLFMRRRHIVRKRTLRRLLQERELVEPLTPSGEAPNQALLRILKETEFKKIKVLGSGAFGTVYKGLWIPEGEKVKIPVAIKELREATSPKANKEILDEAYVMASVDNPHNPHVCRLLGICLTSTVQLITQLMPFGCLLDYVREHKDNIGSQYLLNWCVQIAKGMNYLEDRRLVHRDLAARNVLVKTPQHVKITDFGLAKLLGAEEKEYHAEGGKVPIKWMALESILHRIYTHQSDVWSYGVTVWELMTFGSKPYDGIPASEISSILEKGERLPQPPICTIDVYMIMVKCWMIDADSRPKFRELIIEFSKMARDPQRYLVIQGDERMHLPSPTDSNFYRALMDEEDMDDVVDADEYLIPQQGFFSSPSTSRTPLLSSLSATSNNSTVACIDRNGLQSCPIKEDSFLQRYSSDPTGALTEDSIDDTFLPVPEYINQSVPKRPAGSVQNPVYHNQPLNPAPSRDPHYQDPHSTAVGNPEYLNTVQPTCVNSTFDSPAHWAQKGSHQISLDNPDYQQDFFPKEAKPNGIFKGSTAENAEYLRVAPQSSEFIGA
- Measurement notes: EC50 assay: Ba/F3 stable cell proliferation (CCK-8, 72 h)
- Type: cell-based
- Measurement parameters: Ba/F3-EGFR H773-V774insNPH cells
- Procedure: 4,000 Ba/F3 stable cells/90 μL/well were plated onto 96-well cell culture plate (Grenier, Cat.No. 655180) and incubated at 37° C. with a humidified atmosphere of 5% CO2 for 2 h. Then the cells were treated with 10 μL compounds at serial titration. […] 10 μL the cell proliferation reagent CCK-8 (Dojindo, Cat.No. CK04 1000T) was added into each well and incubated the plate at 37° C. for 4 hours, the GD value was measured by SPECTRAmax plus (Molecular Devices) at 450 nm. […]
pEC50: −log10 of the molar value.

smiles_string=C=CC(=O)N1CCC(Oc2cc3c(N[C@H](C)c4ccc(F)cc4)ncnc3cc2OC)CC1 assay_result="6.00 to 6.70"
smiles_string=C=CC(=O)N1CCC(Oc2cc3c(Nc4cccc5cn[nH]c45)ncnc3cc2OC)CC1 assay_result="< 6.00"

Next molecule, please.
Task: Note pEC50 for the molecule shown: `C=CC(=O)N1CCC(Oc2cc3c(NCc4cccc(F)c4)ncnc3cc2OC)CC1`
Result: ≥ 6.70
